# TARGET_OR_TEST_SYSTEM: Cyclin E1 (Homo sapiens, UniProt P24864+Q96SW2)
# Sequence (P24864 whole entry): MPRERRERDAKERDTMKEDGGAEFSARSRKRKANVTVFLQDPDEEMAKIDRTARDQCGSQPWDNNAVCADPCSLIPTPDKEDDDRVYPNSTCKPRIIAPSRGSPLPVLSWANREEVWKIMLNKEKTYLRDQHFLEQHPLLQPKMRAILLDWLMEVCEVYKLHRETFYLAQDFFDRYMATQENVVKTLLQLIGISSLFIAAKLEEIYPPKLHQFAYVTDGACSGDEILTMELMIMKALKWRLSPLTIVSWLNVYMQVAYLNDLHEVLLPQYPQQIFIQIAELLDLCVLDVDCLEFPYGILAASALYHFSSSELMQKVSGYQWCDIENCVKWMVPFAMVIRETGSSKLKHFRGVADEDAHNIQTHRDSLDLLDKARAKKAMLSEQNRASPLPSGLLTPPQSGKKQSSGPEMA
# Sequence (Q96SW2 whole entry): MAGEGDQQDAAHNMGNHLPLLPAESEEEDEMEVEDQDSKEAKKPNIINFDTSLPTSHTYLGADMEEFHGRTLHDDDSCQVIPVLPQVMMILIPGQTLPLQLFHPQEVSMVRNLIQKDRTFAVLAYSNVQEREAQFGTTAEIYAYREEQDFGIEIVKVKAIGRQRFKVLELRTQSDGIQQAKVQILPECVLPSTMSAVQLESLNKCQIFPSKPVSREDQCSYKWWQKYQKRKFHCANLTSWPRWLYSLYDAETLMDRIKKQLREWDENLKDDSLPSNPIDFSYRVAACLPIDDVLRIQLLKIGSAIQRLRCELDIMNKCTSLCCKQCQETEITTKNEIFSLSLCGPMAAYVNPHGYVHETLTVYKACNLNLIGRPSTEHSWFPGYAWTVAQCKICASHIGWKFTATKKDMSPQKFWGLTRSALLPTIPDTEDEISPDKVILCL
# Sequence (Q16531 whole entry partner): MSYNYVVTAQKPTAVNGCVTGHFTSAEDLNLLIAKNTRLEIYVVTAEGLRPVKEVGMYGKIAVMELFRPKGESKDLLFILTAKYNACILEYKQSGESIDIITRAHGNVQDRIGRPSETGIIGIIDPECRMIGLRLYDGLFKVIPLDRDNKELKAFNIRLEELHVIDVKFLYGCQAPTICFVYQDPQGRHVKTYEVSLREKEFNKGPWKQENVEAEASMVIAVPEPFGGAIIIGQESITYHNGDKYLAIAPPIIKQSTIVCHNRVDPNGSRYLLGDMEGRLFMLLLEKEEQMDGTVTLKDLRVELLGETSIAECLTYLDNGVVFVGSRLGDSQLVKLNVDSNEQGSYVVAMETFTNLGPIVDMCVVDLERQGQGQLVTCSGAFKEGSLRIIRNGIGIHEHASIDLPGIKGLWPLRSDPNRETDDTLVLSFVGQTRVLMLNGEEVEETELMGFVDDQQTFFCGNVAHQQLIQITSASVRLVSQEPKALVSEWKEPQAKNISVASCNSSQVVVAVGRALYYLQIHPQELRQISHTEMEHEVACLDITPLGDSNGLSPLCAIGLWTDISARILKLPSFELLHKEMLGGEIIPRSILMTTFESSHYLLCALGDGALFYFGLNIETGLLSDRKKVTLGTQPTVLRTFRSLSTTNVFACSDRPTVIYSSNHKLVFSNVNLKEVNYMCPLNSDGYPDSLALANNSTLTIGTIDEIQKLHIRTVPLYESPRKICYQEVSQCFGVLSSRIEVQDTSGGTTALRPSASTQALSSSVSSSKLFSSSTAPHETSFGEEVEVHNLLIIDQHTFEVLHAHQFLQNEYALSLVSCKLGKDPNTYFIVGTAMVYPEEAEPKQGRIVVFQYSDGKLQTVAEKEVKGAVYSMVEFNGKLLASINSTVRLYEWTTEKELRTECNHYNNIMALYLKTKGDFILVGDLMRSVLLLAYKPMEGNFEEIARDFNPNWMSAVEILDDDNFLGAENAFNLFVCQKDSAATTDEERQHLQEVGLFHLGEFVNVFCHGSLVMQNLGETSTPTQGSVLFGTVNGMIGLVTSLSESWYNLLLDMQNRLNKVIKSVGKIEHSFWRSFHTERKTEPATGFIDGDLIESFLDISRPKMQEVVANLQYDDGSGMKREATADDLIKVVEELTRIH
# ASSAY_TEXT: Cyclin E1 Cellular Degradation Assay (MSD)
# Assay type: cell-based
# Set-up: endogenous in cells; host or cells: OVCAR3
# CONDITIONS: selectivity for degradation of Cyclin E1 over GSPT1
OUTCOME_MEASURE: Ratio of GSPT1 DC50/Cyclin E1 DC50

Task item: # get_value(readout='Ratio of GSPT1 DC50/Cyclin E1 DC50', item= CC(C)(O)COc1c(COC(=O)Nc2ccc(Oc3ccc(F)c(F)c3)cc2F)ccc2c1C(=O)N(C1CCC(=O)NC1=O)C2 (centres unmarked) )
Reply: >225

Task item: Now try O=C1CCC(N2Cc3ccc(COC(=O)Nc4ccc(Oc5ccc(F)c(F)c5)cc4)c(O[C@H]4CCOC4)c3C2=O)C(=O)N1 (some centres unmarked) .
Reply: >92

Task item: Now try O=C1CCC(N2Cc3ccc(COC(=O)Nc4ccc(Oc5ccc(F)c(F)c5)cc4)c(OC4CCCC4)c3C2=O)C(=O)N1 (centres unmarked) .
Reply: >196

Task item: Now try O=C1CCC(N2Cc3ccc(COC(=O)Nc4ccc(Oc5ccc(F)cc5)cc4F)c(O[C@@H]4CCCOC4)c3C2=O)C(=O)N1 (some centres unmarked) .
Reply: >1,121

Task item: Now try O=C1CCC(N2Cc3ccc(COC(=O)Nc4ccc(Oc5ccc(F)c(F)c5)cc4)c(OC(F)F)c3C2=O)C(=O)N1 (centres unmarked) .
Reply: >89

====

Would you kindly list Ratio of GSPT1 DC50/Cyclin E1 DC50 for each of these compounds?
# TARGET_OR_TEST_SYSTEM: Cyclin E1 (Homo sapiens, UniProt P24864+Q96SW2)
# ASSAY_TEXT: Cyclin E1 Cellular Degradation Assay (MSD)
# Format: cell-based
# Design: endogenous in cells; host or cells: OVCAR3
# CONDITIONS: selectivity for degradation of Cyclin E1 over GSPT1

Task item: # get_value(readout='Ratio of GSPT1 DC50/Cyclin E1 DC50', item= COc1cc(Oc2ccc(F)c(F)c2)ccc1NC(=O)OCc1ccc2c(c1OC)C(=O)N(C1CCC(=O)NC1=O)C2 (stereo not drawn) )
Reply: >44

Task item: Now try COc1cc(Oc2ccc(F)c(Cl)c2)ccc1NC(=O)OCc1ccc2c(c1OC)C(=O)N(C1CCC(=O)NC1=O)C2 (stereo not drawn) .
Reply: >43

Task item: Now try COc1cc(Oc2cccc(F)c2)ccc1NC(=O)OCc1ccc2c(c1OC)C(=O)N(C1CCC(=O)NC1=O)C2 (stereo not drawn) .
Reply: >101

Task item: Now try COc1c(COC(=O)Nc2ccc(Oc3cccc(F)c3F)cc2)ccc2c1C(=O)N(C1CCC(=O)NC1=O)C2 (stereo not drawn) .
Reply: >81

Task item: Now try CC(C)Oc1c(COC(=O)Nc2ccc(Oc3ccccc3)cc2)ccc2c1C(=O)N(C1CCC(=O)NC1=O)C2 (stereo not drawn) .
Reply: >109

Task item: Now try COc1c(COC(=O)Nc2ccc(Oc3cccc(F)c3)cc2F)ccc2c1C(=O)N(C1CCC(=O)NC1=O)C2 (stereo not drawn) .
Reply: >87

Task item: Now try O=C1CCC(N2Cc3ccc(COC(=O)Nc4ccc(Oc5ccc(F)cc5Cl)cc4)c(Oc4ccccc4)c3C2=O)C(=O)N1 (stereo not drawn) .
Reply: >76

Task item: Now try COc1ccccc1Oc1ccc(NC(=O)OCc2ccc3c(c2OC)C(=O)N(C2CCC(=O)NC2=O)C3)cc1 (stereo not drawn) .
Reply: 9

Task item: Now try COc1c(COC(=O)Nc2ccc(Oc3cc(F)c(F)cc3C)cc2C)ccc2c1C(=O)N(C1CCC(=O)NC1=O)C2 (stereo not drawn) .
Reply: >63

Task item: Now try CCOc1c(COC(=O)Nc2ccc(Oc3cccc(F)c3)cc2)ccc2c1C(=O)N(C1CCC(=O)NC1=O)C2 (stereo not drawn) .
Reply: >99

Task item: Now try O=C1CCC(N2Cc3ccc(COC(=O)Nc4ccc(Oc5ccc(F)cc5F)cc4)c(O[C@@H]4CCCOC4)c3C2=O)C(=O)N1 (stereo partly drawn) .
Reply: >247

Task item: Now try CC(C)Oc1c(COC(=O)Nc2ccc(Oc3ccc(F)c(F)c3)cc2)ccc2c1C(=O)N(C1CCC(=O)NC1=O)C2 (stereo not drawn) .
Reply: >88

Task item: Now try COc1cc(F)c(F)cc1Oc1ccc(NC(=O)OCc2ccc3c(c2OC)C(=O)N(C2CCC(=O)NC2=O)C3)c(C)c1 (stereo not drawn) .
Reply: >9

Task item: Now try CCOc1c(COC(=O)Nc2ccc(Oc3ccccc3)cc2)ccc2c1C(=O)N(C1CCC(=O)NC1=O)C2 (stereo not drawn) .
Reply: >105

Task item: Now try COCCOc1c(COC(=O)Nc2ccc(Oc3ccc(F)c(F)c3)cc2F)ccc2c1C(=O)N(C1CCC(=O)NC1=O)C2 (stereo not drawn) .
Reply: >159

Task item: Now try COc1cc(Oc2ccc(F)cc2Cl)ccc1NC(=O)OCc1ccc2c(c1OC)C(=O)N(C1CCC(=O)NC1=O)C2 (stereo not drawn) .
Reply: >380

Task item: Now try COc1c(COC(=O)Nc2ccc(Oc3ccc(F)cc3F)cc2C)ccc2c1C(=O)N(C1CCC(=O)NC1=O)C2 (stereo not drawn) .
Reply: >146

Task item: Now try COc1c(COC(=O)Nc2ccc(Oc3cccc(C)c3)cc2)ccc2c1C(=O)N(C1CCC(=O)NC1=O)C2 (stereo not drawn) .
Reply: >228

Task item: Now try O=C1CCC(N2Cc3ccc(COC(=O)Nc4ccc(Oc5ccc(F)c(F)c5)cc4)c(OC4CCCOCC4)c3C2=O)C(=O)N1 (stereo not drawn) .
Reply: >930

Task item: Now try COc1c(COC(=O)Nc2ccc(Oc3ccccc3)cc2)ccc2c1C(=O)N(C1CCC(=O)NC1=O)C2 (stereo not drawn) .
Reply: >180

Task item: Now try COc1c(COC(=O)Nc2ccc(Oc3ccc(F)c(F)c3)cc2C)ccc2c1C(=O)N(C1CCC(=O)NC1=O)C2 (stereo not drawn) .
Reply: 44

Task item: Now try COc1c(COC(=O)Nc2ccc(Oc3ccc(F)cc3)cc2C)ccc2c1C(=O)N(C1CCC(=O)NC1=O)C2 (stereo not drawn) .
Reply: >39

Task item: Now try CC(C)Oc1c(COC(=O)Nc2ccc(Oc3ccc(F)cc3Cl)cc2)ccc2c1C(=O)N(C1CCC(=O)NC1=O)C2 (stereo not drawn) .
Reply: >72

Task item: Now try COc1c(COC(=O)Nc2ccc(C(C)(C)c3ccccc3)cc2)ccc2c1C(=O)N(C1CCC(=O)NC1=O)C2 (stereo not drawn) .
Reply: >42

====

# TARGET_OR_TEST_SYSTEM: Cyclin E1 (Homo sapiens, UniProt P24864+Q96SW2)
# ASSAY_TEXT: Cyclin E1 Cellular Degradation Assay (MSD)
# Format: cell-based
# Set-up: endogenous in cells; host or cells: OVCAR3
# CONDITIONS: Cyclin E1 cellular degradation
OUTCOME_MEASURE: log10 DC50 (log10 of the value in µM)
Remember, log10 of DC50, in µM.

Task item: # get_value(readout='log10 DC50', item= COc1c(COC(=O)Nc2ccc(Oc3ccc(F)c(F)c3)cc2)ccc2c1C(=O)N([C@@H]1CCC(=O)NC1=O)C2 (single isomer, unassigned) )
Reply: -0.59

Task item: Now try O=C1CCC(N2Cc3ccc(COC(=O)Nc4ccc(Oc5ccc(F)cc5F)cc4)c(O[C@@H]4CCOC4)c3C2=O)C(=O)N1 (stereo partly shown) .
Reply: -0.94

Task item: Now try O=C1CCC(N2Cc3ccc(COC(=O)Nc4ccc(Oc5ccc(F)c(F)c5)cc4)c(OC4CCCCC4)c3C2=O)C(=O)N1 (stereo not shown) .
Reply: -1.59

Task item: Now try O=C1CCC(N2Cc3ccc(COC(=O)Nc4ccc(Oc5ccccc5)cc4)c(O[C@@H]4CCCOC4)c3C2=O)C(=O)N1 (stereo partly shown) .
Reply: -1.66

Task item: Now try COc1c(COC(=O)Nc2ccc(Oc3cccc(Cl)c3)cc2F)ccc2c1C(=O)N(C1CCC(=O)NC1=O)C2 (stereo not shown) .
Reply: -1.01

Task item: Now try CC(C)Oc1c(COC(=O)Nc2ccc(Oc3cccc(F)c3F)cc2)ccc2c1C(=O)N(C1CCC(=O)NC1=O)C2 (stereo not shown) .
Reply: -0.83

Task item: Now try O=C1CCC(N2Cc3ccc(COC(=O)Nc4ccc(Oc5ccc(F)cc5F)cc4)c(O[C@@H]4CCCOC4)c3C2=O)C(=O)N1 (stereo partly shown) .
Reply: -1.24

Task item: Now try O=C1CCC(N2Cc3ccc(COC(=O)Nc4ccc(Oc5cccc(F)c5)cc4)c(Oc4ccccc4)c3C2=O)C(=O)N1 (stereo not shown) .
Reply: -0.88

Task item: Now try COc1c(COC(=O)Nc2ccc(Cc3cc(F)c(F)c(F)c3)cc2)ccc2c1C(=O)N(C1CCC(=O)NC1=O)C2 (stereo not shown) .
Reply: -0.84

Task item: Now try COc1cc(Oc2ccc(F)cc2Cl)ccc1NC(=O)OCc1ccc2c(c1OC)C(=O)N(C1CCC(=O)NC1=O)C2 (stereo not shown) .
Reply: -1.43

Task item: Now try CC(C)Oc1c(COC(=O)Nc2ccc(Oc3cccc(F)c3)cc2)ccc2c1C(=O)N(C1CCC(=O)NC1=O)C2 (stereo not shown) .
Reply: -0.88

Task item: Now try COC(=O)COc1c(COC(=O)Nc2ccc(Oc3ccc(F)c(F)c3)cc2)ccc2c1C(=O)N(C1CCC(=O)NC1=O)C2 (stereo not shown) .
Reply: -0.69

Task item: Now try O=C1CCC(N2Cc3ccc(COC(=O)Nc4ccc(Oc5ccc(F)cc5)cc4)c(O[C@@H]4CCCOC4)c3C2=O)C(=O)N1 (stereo partly shown) .
Reply: -0.97

Task item: Now try COc1c(COC(=O)Nc2ccc(Oc3cc(F)c(F)cc3Cl)cc2F)ccc2c1C(=O)N(C1CCC(=O)NC1=O)C2 (stereo not shown) .
Reply: -0.95

Task item: Now try COc1c(COC(=O)Nc2ccc(Oc3ccc(F)c(Cl)c3)cc2F)ccc2c1C(=O)N(C1CCC(=O)NC1=O)C2 (stereo not shown) .
Reply: -1.01

Task item: Now try CC(C)(O)COc1c(COC(=O)Nc2ccc(Oc3ccccc3)cc2)ccc2c1C(=O)N(C1CCC(=O)NC1=O)C2 (stereo not shown) .
Reply: -1.64
